PROCEDURE SUMMARY: molar enthalpy of vaporization or sublimation
SETTINGS: 298.15 K; Crystal; Static calorimetry
METRIC NAME: molar enthalpy (kcal/mol)

c1ccc(-c2nc3ccccc3s2)cc1 = 23.7
Oc1ccccc1-c1nc2ccccc2s1 [2-(2-hydroxyphenyl)-1,3-benzothiazole] = 25.1
Oc1ccccc1-c1nc2ccccc2o1 [2-(2-hydroxyphenyl)benzoxazole] = 24
c1ccc(-c2nc3ccccc3o2)cc1 = 21.7
